Values were extracted from the domain aggregation screens of Martell et al. (2025).

# ASSAY TEXT: soluble fraction after stress (log2 fold change); higher = more stays soluble; pooled small domains, quantitative proteomics
# EXPERIMENTAL CONTEXT: stress: 50 degC
PROPERTY MEASURED: soluble fraction (log2)

SEQUENCE ENTRY	NUMERIC VALUE
HMVLANLQAAEQGDLGIKEGEKLTILQTRPDGWWTARNANGETGLVPK	0.173
HMFPELSEEEQIIVSLLQKQPDGLQINTLVVESNIPVNRMSGILFELEMKGIIRMAAGGVYRLL	-0.203
HMPSSIEGIEKYLGSGMIRGIGAVYAKRLVKQFGKDVFDIIEETPERLREVEGIGPIRAARIISGWADQ	-0.41
HMVITEQTVTVKYLYEDDTEAAPEHSETHKTGETFEIESPKIDGFTPDYELITGTIANDDLVYIVRYKTTP	-0.282
HMSSFSESFHKALNNLDDKHKSVFSLRHFEGFSMKEIAETLNINEGTVKSRLFYATKTLAGALKEF	-2.74
HMKVSKNKIVKGMGFHHVALKAVDFDASFKFYTEGLGMKFYTSWGEGNGKIAMLDLGDGGILELFA	0.0801
HMKDANIQIGKRLREARLNMNLEKSEIADVLGVTVEHYRKLEAGVMGISVDKVLTLYHKYGIDPTYLITG	-1.19
HMTEDTPIIVERVVADIDENVVAIVRKFKDAFKSITAQREIKKKLRSILWVNYQIKDQEVFDKAYQYIEMY	0.0204
HMLSDEEKMAALNEQARQRGFTISPGVLPYLITHYQRDMHSLSMILDALDRYSLQTKRTITLPLLHDLLQQ	-1.06
HMAHKRVDGTIVTPLTADTIVLRTGTHGEQPFEIRDTTRHKLESLQKGDMVILLIDTDNKVIDVAIPP	0.423
HMPDITAAVARTLQALRADRGWSLDQLAARSGVSKGVLVALEQGRSNPNLATLARIGDAFGVPVTLLVDL	-0.543
HMGRLNMRRIRDVLRLKFGQGLSERQVAASLGLSKTSVGTYLHRARQAGLTWPLPQGLDDDGLELLLFP	-1.29
HMSKEDDSLVVTFRRMLLEEVDLHELSRIDANQRRARLERVIAHLVSREGVILSASERNQLVRRVVDEAV	-0.529
HMNSVAASLREISIKVSGTEDADKVSRLQELSQMPKLDASGIAEANTLLEQLRAKYGDLGLSVDTARGRIV	0.284
HMAISEAERARLQTKIKERNKMARWINTNLNPTSKIRNINPAETVRKLMTQDDADSLERSLDAFMEA	-0.0378
HMTDLQNDIQAFNLKKMSYQHETKKLEEKRNPEKLEKLEQDIQALYLRIMENPNMRAFDSAKQALYLQIM	-0.773
HMQEESISWKEFLELDIIGDKKKRLKVYDLFHLGYGNAKTLFKRLNMVGISREMIEKELENEGY	-1.32
HMQTFNADDIEPIIKEILQENPKAISDFLTGNENVVKFLLGQVMKNTKGKANPKVIEELLINQLRELNN	0.00183
HMTLGARTLAAIQSLPKVQQAVFTMKHFEGLKYREISQITGTSEGALKASYHIALEKIKAFLREK	-2.53
HMGITRQQALQQINQSASPKKILNASLGKRGSEFVWDIGYLSKSGKLNYVTYSFRSGEQLNAIKN	-1.02
HMDRNIVYSDFIRSVNQGQVSEVLVQGDNIRGRYLNGKVFQTFAPKDPSLISTLRNKGVRISAEPA	0.113
